Reference for the values: FireProtDB (doi:10.1021/bi00437a058)

B1: Ribonuclease, P00648 (parent)
chain: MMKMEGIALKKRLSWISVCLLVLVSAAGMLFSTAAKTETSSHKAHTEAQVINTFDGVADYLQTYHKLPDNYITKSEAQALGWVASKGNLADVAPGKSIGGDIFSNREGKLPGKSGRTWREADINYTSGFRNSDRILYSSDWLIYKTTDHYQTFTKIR

variants of: B1; conditions: Bacillus amyloliquefaciens; pH 6.3; 25 °C; Urea; Fluorescence; MES 450 mM; reversible: yes (100%); structure 1BNI; whole UniProt chain shown
METRIC NAME: denaturant midpoint (higher = more stable) (M)
Give bare numbers, in M.

// below: answered variants
- VARIANT: "L61A"
  QUANTITATIVE RESULT: 2.29
- VARIANT: "I143V"
  QUANTITATIVE RESULT: 4.11

Batch lookup, denaturant midpoint (higher = more stable) per entry.
1. I135V
2. I135A
3. I143A

1. 3.87
2. 2.47
3. 2.89
